target: human GLP-1 receptor (human, UniProt P43220 24-463); experiment: cell-based or functional assay
Bridges are numbered along the chain shown (N, C = ends). Where no end group is shown, it is not given here. [ ]: non-standard residue; d: D form. The star is where a group is joined. Acetyl(2-(4-imidazolyl)) = O=C(Cc1c[nH]cn1)*; Aib = CC(C)(N)C(=O)O
# if value of In vitro activity compared with native peptide (%) vs. GLP-1 reaches 40%, tag 1 (yes); if it stays below, tag 0 (no)

binder="H[Aib]QGTFTSDKSKYLDECAAQDFVQWLLDGGPSSGAPPPS [Triple agonist of SEQ ID NO: 41]" class_name="0 (no)"
binder="Y[Aib]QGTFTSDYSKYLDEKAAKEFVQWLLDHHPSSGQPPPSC (bridge 16-20) [Triple agonist of SEQ ID NO: 75]" class_name="0 (no)"
binder="Y[Aib]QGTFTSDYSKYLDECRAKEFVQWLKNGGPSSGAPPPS (bridge 16-20) [Triple agonist of SEQ ID NO: 24]" class_name="1 (yes)"
binder="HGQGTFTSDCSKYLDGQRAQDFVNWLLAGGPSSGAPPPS [Triple agonist of SEQ ID NO: 48]" class_name="0 (no)"
binder="H[Aib]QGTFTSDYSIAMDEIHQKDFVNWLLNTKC (bridge 16-20) [Triple agonist of SEQ ID NO: 35]" class_name="0 (no)"
binder="{Acetyl(2-(4-imidazolyl))}-[Aib]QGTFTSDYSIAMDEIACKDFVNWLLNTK (bridge 15-19) [Triple agonist of SEQ ID NO: 61]" class_name="1 (yes)"
